Test system: generation of TXB2 in the whole blood
methodNotes: whole blood assay, yield of TXB2 in coagulated blood (ELISA)
Format: cell-based
appliedConditions: Homo sapiens; blood of healthy donors, non-anticoagulation tube; read-out: inhibition IC50 onto generation of TXB2 in the whole blood test
Measured IC50, listed per entry.

Below, 2 compounds whose answers are already recorded.
[2H]C([2H])([2H])c1cc2c(c(C([2H])([2H])[2H])c1Cl)C=C(C(=O)O)C(C(F)(F)F)O2 (stereo not drawn) : 65.1 µM
[2H]C([2H])([2H])c1cc2c(c(C([2H])([2H])[2H])c1Br)C=C(C(=O)O)C(C(F)(F)F)O2 (stereo not drawn) : 38.9 µM

Query compound follows.
Prompt: Please supply the value of reported IC50 for the item [2H]C([2H])([2H])C([2H])([2H])c1cc(OC(F)(F)F)cc2c1OC(C(F)(F)F)C(C(=O)O)=C2 (stereo not drawn)
Completion: 20.5 µM
